method: Fluorescence excitation and emission spectra
condition_summary: anion of hydrolysis product
Listed compounds paired with reported λem (nm)
Entry format: amount then unit.

Illustrative cases are given below, each with its answer.
O=c1oc2cc(O)ccc2cc1-c1cccs1 [3-(2-thienyl) umbelliferyl anion, 3-(2-thienyl) umbelliferone] | 502 nm
O=c1oc2cc(O)ccc2cc1-c1nc2ccccc2o1 [3-(2-benzoxazolyl) umbelliferyl anion] | 471 nm
O=c1oc2cc(O)ccc2cc1-c1nc2ccccc2s1 [3-(2-benzothiazolyl) umbelliferyl anion] | 488 nm

Kindly review the next compound as well.
Endpoint output: λem (nm) of O=c1oc2cc(O)ccc2cc1-c1nc2ccccc2[nH]1 [3-(2-benzoimidazolyl) umbelliferyl anion] . Value?
477 nm
